Experiment: Cytotoxicity in macrophages (MTT)
Assay type: cell-based
Settings: mouse, RAW 264.7 macrophages
assay.metric: CC50 at 48 h (µM)
Answer format: numeric, µM implied, no suffix.

CC(C)(C)OC(=O)c1c(N)sc2c1CCN(C(=O)OC(C)(C)C)C2: 195
Cc1cccc2c(/C=N/c3[se]c4c(c3C#N)CCCC4)c[nH]c12: 186
CCOC(=O)c1c(N)sc2c1CCN(C(=O)OC(C)(C)C)C2: 221

[in] Query: CC50 at 48 h; subject: "COc1cccc2[nH]cc(/C=N/c3[se]c4c(c3C#N)CCCC4)c12"
[out] 178

[in] Which measured CC50 at 48 h value corresponds to "N#Cc1c(/N=C/c2c[nH]c3ccc(Br)cc23)[se]c2c1CCCC2" ?
[out] 239

----------
Test system: axenic amastigotes of L. amazonensis
Test: Growth inhibition of axenic amastigote forms of L. amazonensis (MTT)
Type: cell-based, Leishmania amazonensis
Conditions: 72 h, 32 °C
Protocol: The in vitro tests utilized Leishmania amazonensis parasites (IFLA/BR/67/PH8). These leishmania cell lines were obtained from Oswaldo Cruz Foundation (FIOCRUZ)/Brazil. […] Parasite growth inhibition was evaluated using the methodology described by Rodrigues et al. (2015). […] The reading was taken at the test and reference wavelengths of 540 and 620 nm using a microplate spectrophotometer. […]
assay.metric: IC50
The reply should read as a number followed by its unit.

[in] What does the record list as IC50 for CCCC1CCc2c(sc(N)c2C#N)C1 (stereo not shown) ?
[out] 9.3 µM

----------
Assay: Cytotoxicity in macrophages (MTT)
Format: cell-based
Settings: mouse, RAW 264.7 macrophages
Quick rule for you: CC50 at 48 h under 200 µM gets 1, anything else gets 0.

Field: example entries. Status: answers known.
N#Cc1c(/N=C/c2c[nH]c3cccc([N+](=O)[O-])c23)[se]c2c1CCCC2: 1
N#Cc1c(/N=C/c2c[nH]c3cccc(Br)c23)[se]c2c1CCCC2: 0
CC(C)(C)OC(=O)N1CCc2c(sc(N)c2C(N)=O)C1: 0

[in] Strictly below 200 µM: is that where CC50 at 48 h of N=C(N)c1ccc(OCCCCCOc2ccc(C(=N)N)cc2)cc1 [Pentamidine, reference compound] sits?
[out] 0

----------
Tested on: RAW 264.7 macrophages
Experiment: Cytotoxicity in macrophages (MTT)
Assay type: cell-based
Conditions: 48 h, listed as Anfotericina B
assay.metric: CC50 (nM)
Give just the numeric value; nM need not be written.

[in] Consider the molecule shown here: C[C@@H]1[C@H](O)[C@@H](C)/C=C/C=C/C=C/C=C/C=C/C=C/C=C/[C@H](O[C@@H]2O[C@H](C)[C@@H](O)[C@H](N)[C@@H]2O)C[C@@H]2O[C@](O)(C[C@@H](O)C[C@@H](O)[C@H](O)CC[C@@H](O)C[C@@H](O)CC(=O)O[C@H]1C)C[C@H](O)[C@H]2C(=O)O [Amphotericin B, reference compound] What is its recorded CC50?
[out] 380

Value source: paper PMC11768359
